System: NCI-H23 lung
Assay: NCI tumour cell line growth inhibition, 48 h
ENDPOINT_NAME: TGI (µM)
Record the value in µM, omitting the unit from your answer.

Some solved entries appear below for comparison.
[[record]]
compound = "N#CSCC1CC(O)(c2ccccc2)C(c2ccccc2)C(c2ccc(F)cc2)O1 (stereo unspecified)"
target_or_test_system = "NCI-H23 lung"
endpoint_name = "TGI"
endpoint_value = 11.1

[[record]]
compound = "Cc1ccc2c(=O)[nH]sc2c1"
target_or_test_system = "NCI-H23 lung"
endpoint_name = "TGI"
endpoint_value = 42.4

[[record]]
compound = "O=C(c1ccco1)N1CCN(C(=O)c2ccco2)C1=S"
target_or_test_system = "NCI-H23 lung"
endpoint_name = "TGI"
endpoint_value = 50.3


Req: Field request: TGI | item: `CC[O-].CC[O-].O=Nc1ccc2cc([O-])ccc2c1.O=Nc1ccc2cc([O-])ccc2c1.[Ti+4]`
Resp: 3.19

Req: Field request: TGI | item: `O=Cc1[nH]c2ccccc2c1Br`
Resp: 87.8

----------
System: PC-3 prostate
Assay: NCI tumour cell line growth inhibition, 48 h
Parameter GI50: see the listing below.

Some solved entries appear below for comparison.
[[record]]
compound = "CCc1ccc(CCC(=O)Nc2ncc(Cc3ccccc3)s2)o1"
endpoint_value = "2.74 µM"

[[record]]
compound = "Clc1cc(Cl)cc(N2N=C(c3cccc(Nc4ccncc4)c3)CC2c2ccc(Br)cc2)c1 (stereo not drawn)"
endpoint_value = "1.66 µM"

[[record]]
compound = "O=C1C(Cl)=C(N2CCOCC2)C(=O)c2ccccc21"
endpoint_value = "9.38 µM"

[[record]]
compound = "CN(/N=N/c1nc(OCc2ccccc2)c2[nH]cnc2n1)C(=O)N(C)/N=N/c1nc(OCc2ccccc2)c2[nH]cnc2n1"
endpoint_value = "40.5 µM"


Req: Field request: GI50 | item: `O=C(Nc1ccncc1)C(=O)c1cn(S(=O)(=O)c2ccccc2F)c2ccccc12`
Resp: 2.35 µM

Req: Field request: GI50 | item: `CCS(=O)(=O)c1ccc(OC)c(Nc2nccc(N(C)c3ccc4c(C)[nH]nc4c3)n2)c1`
Resp: 5.46 µM

Req: Field request: GI50 | item: `COc1ccc(C2=C(c3cn(C)c4ccccc34)C(=O)NC2=O)cc1OC`
Resp: 7.29 µM

Req: Field request: GI50 | item: `Cc1cc(S(=O)(=O)NC#N)c(S/C(=N\Nc2ccc([N+](=O)[O-])cc2)c2ccccc2)cc1Cl`
Resp: 21.5 µM

----------
Parameter TGI: see the listing below.
Test system: LOX IMVI melanoma
Experiment: NCI tumour cell line growth inhibition, 48 h

Some solved entries appear below for comparison.
[[record]]
structure = "CSc1cc(Cl)c(C)cc1S(=O)(=O)NC(=O)NNc1ccccn1"
endpoint_name = "TGI"
endpoint_value = "> 100 µM"

[[record]]
structure = "CN(C)CCCn1c2c3ccccc3ccc2c2oc(=O)c3ccccc3c21"
endpoint_name = "TGI"
endpoint_value = "13.3 µM"


Req: Field request: TGI | item: `O=C1CNc2cc(N3CCN(c4cccc(C(F)(F)F)c4)CC3)ccc2N1`
Resp: > 100 µM

----------
Parameter TGI: see the listing below.
Test system: NCI/ADR-RES ovarian
Experiment: NCI tumour cell line growth inhibition, 48 h

Req: State its TGI on NCI/ADR-RES ovarian: N#CSCC1CC(O)(c2ccccc2)C(c2ccccc2)C(c2ccc(F)cc2)O1 (centres undefined)
Resp: 11.9 µM

Req: State its TGI on NCI/ADR-RES ovarian: C=CCC1(O)c2cccc(O)c2C(=O)c2cccc(O)c21 (centres undefined)
Resp: 40.2 µM

Req: State its TGI on NCI/ADR-RES ovarian: OCC1CCCCN1Cc1nc2ccc(Cl)cc2[nH]1 (centres undefined)
Resp: > 100 µM

Req: State its TGI on NCI/ADR-RES ovarian: C=CCN1C(=O)/C(=C/c2cccs2)N=C1SC1OC(COC(=O)c2ccccc2)C(OC(=O)c2ccccc2)C1OC(=O)c1ccccc1 (centres undefined)
Resp: > 100 µM

Req: State its TGI on NCI/ADR-RES ovarian: `O=C(Nc1cc(Cl)ccc1O)c1cccc(NC2=C(Cl)C(=O)N(Cc3ccccc3)C2=O)c1`
Resp: 43.4 µM

Req: State its TGI on NCI/ADR-RES ovarian: `c1cncc(CNc2ccccc2-c2nnc(Nc3ccc4c(c3)OCCO4)o2)c1`
Resp: > 100 µM

Req: State its TGI on NCI/ADR-RES ovarian: `COc1ncc(C#CC(=O)c2ccccc2OC)c(OC)n1`
Resp: 4.78 µM

Req: State its TGI on NCI/ADR-RES ovarian: `COc1ccc2c(-c3ccc(O)cc3)c(Oc3ccccc3)c(=O)oc2c1`
Resp: > 100 µM

Req: State its TGI on NCI/ADR-RES ovarian: `CCOC(=O)c1ccc(Nc2nc3ccc(C(F)(F)F)cc3nc2-c2ccccc2)cc1`
Resp: > 100 µM

Req: State its TGI on NCI/ADR-RES ovarian: `O=C(CNC(=O)c1cccc2ccccc12)Nc1ccccc1Oc1ccccc1`
Resp: > 10 µM

Req: State its TGI on NCI/ADR-RES ovarian: `Cc1ccc(C(=O)N/N=C/c2cccc(Oc3ccccc3)c2)cn1`
Resp: > 71.4 µM

Req: State its TGI on NCI/ADR-RES ovarian: CC1CSc2nc3[nH]c(=S)[nH]c3c(=O)n2C1 (centres undefined)
Resp: > 100 µM

Req: State its TGI on NCI/ADR-RES ovarian: `CSc1nc(-c2cc3c(c(SC)n2)CCC3)cc2c1CCC2`
Resp: > 100 µM

Req: State its TGI on NCI/ADR-RES ovarian: `CCOC(=O)/C=C/[C@H](O[Si](c1ccccc1)(c1ccccc1)c1ccccc1)C(C)(C)C`
Resp: > 31.6 µM

Req: State its TGI on NCI/ADR-RES ovarian: `Cc1cc(-c2nc3ccc(O)cc3s2)ccc1N`
Resp: > 100 µM

Req: State its TGI on NCI/ADR-RES ovarian: `Cc1cc(N/N=C/c2nc(-c3ccccc3)oc2C)c2cc(Cl)ccc2n1`
Resp: 3.95 µM

Req: State its TGI on NCI/ADR-RES ovarian: `O=C(Nc1ccc2oc(=O)c(C(=O)O)cc2c1)Oc1ccccc1`
Resp: > 100 µM

Req: State its TGI on NCI/ADR-RES ovarian: `CC(C)(N=NC(C)(C)C1=NCCN1)C1=NCCN1`
Resp: > 100 µM

Req: State its TGI on NCI/ADR-RES ovarian: `c1cncc(C(Nc2cccc3cccnc23)Nc2cccc3cccnc23)c1`
Resp: > 100 µM
